assay: Solubility in water of chitosan oligosaccharides (Table 1); type: physicochemical; details: water
PROPERTY: solubility (mg/mL)
I only need the number, in mg/mL, no unit after it.

Let me know recorded solubility for Cl.N[C@H]1C(O)O[C@H](CO)[C@@H](O)[C@@H]1O (stereo partly drawn) [D-Glucosamine HCl] , thanks. 371

---

test: CH3OH solubility of chitosan oligosaccharides (Table 1); format: physicochemical; conditions: methanol, organic solvent or mixture; CH3OH, 20° C.; read-out: CH3OH Solubility
Where a name gives a salt, the structure may show the parent alone.
Label Criterion met when solubility is at or above 50 mg/mL; anything below gets Criterion not met.

Some solved entries appear below for comparison.
| MOLECULE | CATEGORY |
| --- | --- |
| N[C@H]1[C@H](O[C@H]2[C@H](O)[C@@H](N)[C@H](O[C@H]3[C@H](O)[C@@H](N)[C@H](O[C@H]4[C@H](O)[C@@H](N)C(O)O[C@@H]4CO)O[C@@H]3CO)O[C@@H]2CO)O[C@H](CO)[C@@H](O)[C@@H]1O (some centres unmarked) [Chitotetrose HCl] | Criterion met |
| N[C@H]1[C@H](O[C@H]2[C@H](O)[C@@H](N)[C@H](O[C@H]3[C@H](O)[C@@H](N)[C@H](O[C@H]4[C@H](O)[C@@H](N)[C@H](O[C@H]5[C@H](O)[C@@H](N)[C@H](O[C@H]6[C@H](O)[C@@H](N)C(O)O[C@@H]6CO)O[C@@H]5CO)O[C@@H]4CO)O[C@@H]3CO)O[C@@H]2CO)O[C@H](CO)[C@@H](O)[C@@H]1O (some centres unmarked) [Chitohexose HCl] | Criterion not met |
| N[C@H]1[C@H](O[C@H]2[C@H](O)[C@@H](N)C(O)O[C@@H]2CO)O[C@H](CO)[C@@H](O)[C@@H]1O (some centres unmarked) [Chitobiose HCl] | Criterion met |

Determine whether measured solubility meets or exceeds 50 mg/mL for N[C@H]1[C@H](O[C@H]2[C@H](O)[C@@H](N)[C@H](O[C@H]3[C@H](O)[C@@H](N)C(O)O[C@@H]3CO)O[C@@H]2CO)O[C@H](CO)[C@@H](O)[C@@H]1O (some centres unmarked) [Chitotriose HCl] Criterion met

Determine whether measured solubility meets or exceeds 50 mg/mL for N[C@H]1[C@H](O[C@H]2[C@H](O)[C@@H](N)[C@H](O[C@H]3[C@H](O)[C@@H](N)[C@H](O[C@H]4[C@H](O)[C@@H](N)[C@H](O[C@H]5[C@H](O)[C@@H](N)C(O)O[C@@H]5CO)O[C@@H]4CO)O[C@@H]3CO)O[C@@H]2CO)O[C@H](CO)[C@@H](O)[C@@H]1O (some centres unmarked) [Chitopentose HCl] Criterion not met

Data origin: patent US5730876A
